The reported numbers originate from patent US20080214572A1.

# subject of test: human cloned 5-HT2C receptor, expressed in CHO cells (Homo sapiens, UniProt P28335)
# Construct: expressed in transfected cells; host or cells: CHO cells
# Sequence (P28335 33-458): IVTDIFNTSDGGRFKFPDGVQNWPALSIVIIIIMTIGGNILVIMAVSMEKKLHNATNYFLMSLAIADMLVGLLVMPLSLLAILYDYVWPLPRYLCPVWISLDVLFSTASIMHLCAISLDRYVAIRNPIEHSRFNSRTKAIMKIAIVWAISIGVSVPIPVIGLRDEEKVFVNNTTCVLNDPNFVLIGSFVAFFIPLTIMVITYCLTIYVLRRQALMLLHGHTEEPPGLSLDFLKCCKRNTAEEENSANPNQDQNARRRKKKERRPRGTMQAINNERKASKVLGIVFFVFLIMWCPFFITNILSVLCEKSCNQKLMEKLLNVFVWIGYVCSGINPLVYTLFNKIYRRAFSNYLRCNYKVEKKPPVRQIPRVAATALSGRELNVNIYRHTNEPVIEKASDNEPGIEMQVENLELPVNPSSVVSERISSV
# method notes: In vitro radioligand binding affinity for 5-HT2C receptor ([3H]mesulergine)
# recorded conditions: human cloned receptor in CHO cells, [3H]mesulergine; read-out: 5-HT2C pIC50 (converted)
measurement name: IC50 (nM)

[I] Fc1ccc2c(c1)[C@H]1O[C@@H](CN3CCN(CC(c4ccccc4)c4ccccc4)CC3)C[C@@H]1c1ccccc1C2 [Compound 41]
[II] OCCN1CCN(C[C@H]2C[C@@H]3c4ccccc4Sc4ccc(F)cc4[C@H]3O2)CC1 [Compound 39]
[III] Fc1ccc2c(c1)C1OC(CN3CCCCC3)CC1c1ccccc1C2 (stereo not shown) [Compound 17]
[IV] CCCCOC(=O)N1CCN(C[C@H]2C[C@@H]3c4ccccc4Cc4ccc(F)cc4[C@H]3O2)CC1 [Compound 33]
Request: # ascending order, key=IC50 Output spec: a listing of the labels in the requested order.
Result: III, II, IV, I
